Biological target: Nuclear receptor ROR-gamma (Mus musculus)
Test: qHTS for inhibitors of ROR gamma transcriptional activity; note: nearly all actives have a fitted effect of over 60% in size
Details: Drosophila S2 Gal4-RORgamma UAS-luciferase reporter, 20 h; series mostly up to 53.6 µM
The campaign covered roughly 310,000 compounds. About 17,000 (5.5%) were called active. Roughly 11% stayed inconclusive and do not appear here. Calls come from the whole dose curve; as a rule, active = well fitted inhibition curve with a large enough effect; inconclusive = small, poorly fitted or top-dose-only effect, or effect the other way; inactive = no such curve, though single readings can be large or run the other way. The list comes from a sample in which actives are over-represented; it also holds close analogues and randomly drawn compounds.
Your answer must be one of the following: 1 (active), 0 (inactive)

>>> df
                                   molecule  assigned_label
0            O=C(Nc1ccccc1F)c1ccc2c(c1)OCO2               0
1  Cc1cc(C)c2nc(NC(=O)c3ccc4c(c3)OCO4)sc2c1               1

What outcome does the record of this test show for `Cc1ccc(F)cc1NC(=O)c1ccc2c(c1)OCO2` ?
0

Dear all, I need the recorded test outcome for O=C(Nc1ccccc1)C1CC(=O)n2c(nc3ccccc32)N1 (configuration not stated) , thank you.
0

State the result this test recorded for `Cc1ccc2sc(NNC(=O)c3ccc4c(c3)OCCO4)nc2c1C` .
1

// return assay outcome for CN(C(=O)CC1C(=O)NCCN1Cc1ccc2ccccc2c1)C1CCOCC1 (configuration not stated)
0

What outcome does the record of this test show for OC1CSc2nc3ccccc3n2C1 (configuration not stated) ?
0

Please state the recorded outcome for this molecule: COc1ccc2c(c1)OC(O)(C(F)(F)C(F)F)CC2=O (configuration not stated)
1

Tell me the recorded outcome of this test for Cc1cnc(CN(C)C(=O)CC2C(=O)NCCN2Cc2cccc(F)c2F)[nH]1 (configuration not stated) .
0

Can you look up the reported call for COc1ccc2c(c1)SC(C)CC2=O (configuration not stated) for me?
0

# fetch the recorded call for `C/C(Cc1ccccc1)=N\NC(=O)CNC(=O)c1ccc2c(c1)OCCO2` here
0

Call for entry `O=C(Nc1nc2ccccc2s1)c1ccc2c(c1)OCO2` :
1

###

Molecular target: Nuclear receptor ROR-gamma (Mus musculus)
Assay: qHTS for inhibitors of ROR gamma transcriptional activity; note: nearly all actives have a fitted effect of over 60% in size
Settings: Drosophila S2 Gal4-RORgamma UAS-luciferase reporter, 20 h; series mostly up to 53.6 µM
In all, about 310,000 compounds went through this assay and about 17,000 (5.5%) were called active. About 11% were inconclusive and are not listed. Calls come from the whole dose curve; as a rule, active = well fitted inhibition curve with a large enough effect; inconclusive = small, poorly fitted or top-dose-only effect, or effect the other way; inactive = no such curve, though single readings can be large or run the other way. Only a selection was taken, and actives are over-represented in it overall.
Output constraint: value belongs to T = active, F = inactive

Examples from the recorded data:
In [3]: df
Out[3]:
                                   compound                           target_of_assay  assigned_label
0    C=CCn1c(C23CC4CC(CC(C4)C2)C3)n[nH]c1=S  Nuclear receptor ROR-gamma (Mus musculus)               T
1  O=C(CCc1nnc2ccc(NCc3ccccc3Cl)nn12)NCC1CCN(C2CCCC2)C1 (stereo not given)  Nuclear receptor ROR-gamma (Mus musculus)               F

What classification did `C=CCn1c(SCC(=O)NC)nnc1C12CC3CC(CC(C3)C1)C2` end up with in this test?
F

State the result this test recorded for COc1ccc(C2/C(=C(/O)c3ccc4c(c3)CC(C)O4)C(=O)C(=O)N2Cc2ccncc2)cc1 (stereo not given) .
F

Call for entry `O=C(Nc1cccc(Br)c1)c1ccc2snnc2c1` :
F
